Tested on: Hepatitis C virus NS3 helicase
Assay: HCV NS3 helicase inhibitors, primary screen, biochemical, fluorescence polarization, LOPAC1280 library (AID 687035)
Conditions: Purified HCV NS3 helicase, Cy5-dT15 ssDNA binding fluorescence polarization; active compounds read high; concentration not given here
Please go through the items and note down their inhibition.
Give your result in % as a bare value.

Q: Quick one: give measured inhibition for CN(C)c1nc(N)c(C(=O)N=C(N)N)nc1Cl
Result: -2

Q: Read off the recorded inhibition for FC(F)(F)c1ccccc1-n1ccnc1
Result: 0

Q: Supply reported inhibition belonging to this compound: CC(C)Cn1c(=O)n(C)c(=O)c2[nH]cnc21
Result: -1

Q: Look up inhibition of O=C(O)CN(CCOCCOCCN(CC(=O)O)CC(=O)O)CC(=O)O and report it.
Result: -1

Q: Give the measured inhibition for COc1ccc(CCN(C)CCCC(C#N)(c2cc(OC)c(OC)c(OC)c2)C(C)C)cc1OC (configuration not stated)
Result: -1

Q: Item CSC(N)=NCCC[C@H](N)C(=O)O : provide inhibition
Result: -3

Q: Give inhibition for the following compound: Cc1ccc(=O)n(-c2ccccc2)c1
Result: -4

Q: // Input: COC(=O)[C@H]1[C@H]2C[C@H]3c4[nH]c5ccccc5c4CCN3C[C@H]2CC[C@@H]1O . Output its inhibition only.
Result: 0

Q: Give reported inhibition value for CC[N+](CC)(CC)CCOc1ccc(/C=C/c2ccccc2)cc1
Result: -3

Q: Return inhibition (reported value) for this compound: CC(C)C(=O)c1c(C(C)C)nn2ccccc12
Result: -1

Q: Give the reported value of inhibition for this record: CCOC(=O)c1cnc2c(cnn2CC)c1NN=C(C)C
Result: -2

Q: Determine its reported inhibition: CCC(=O)c1ccc2c(c1)N(CCCN(C)C)c1ccccc1S2
Result: -4

Data credit: PubChem BioAssay
